- Target or system: Tyrosine-protein kinase ITK/TSK (Homo sapiens)
- Sequence (Q08881 whole entry): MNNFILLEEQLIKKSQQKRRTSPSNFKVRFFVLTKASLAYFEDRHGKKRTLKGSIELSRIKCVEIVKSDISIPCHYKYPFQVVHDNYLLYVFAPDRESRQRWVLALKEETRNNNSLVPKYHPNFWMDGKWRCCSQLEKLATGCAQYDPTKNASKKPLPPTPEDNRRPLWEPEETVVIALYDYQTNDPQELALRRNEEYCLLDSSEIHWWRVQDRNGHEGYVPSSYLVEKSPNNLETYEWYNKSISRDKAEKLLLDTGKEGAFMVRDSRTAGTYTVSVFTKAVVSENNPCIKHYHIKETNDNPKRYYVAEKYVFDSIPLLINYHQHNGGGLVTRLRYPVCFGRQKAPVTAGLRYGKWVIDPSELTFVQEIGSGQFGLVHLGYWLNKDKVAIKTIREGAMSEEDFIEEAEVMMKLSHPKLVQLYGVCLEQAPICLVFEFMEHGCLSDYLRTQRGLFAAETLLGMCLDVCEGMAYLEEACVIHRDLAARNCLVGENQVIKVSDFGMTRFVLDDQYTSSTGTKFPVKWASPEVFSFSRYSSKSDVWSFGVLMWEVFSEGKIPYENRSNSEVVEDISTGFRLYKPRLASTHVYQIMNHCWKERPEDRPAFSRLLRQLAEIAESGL
- Run description: Inhibition of ITK by DELFIA method
Parameter measured: pIC50
Numbers only, as −log10 of the molar value.

Recorded results for 3 compounds are shown here.
[[record]]
chemical_string = "CN(C(=O)c1ccccc1)c1ccc2c(c1)nc(NC(=O)c1ccc(Br)s1)n2CCC(N)=O"
parameter_measured = "pIC50"
value = 7.82

[[record]]
chemical_string = "COc1ccc(C(=O)Nc2nc3cc(N(C)C(=O)c4ccccc4)ccc3n2CCC(N)=O)cc1"
parameter_measured = "pIC50"
value = 6.77

[[record]]
chemical_string = "CN(C(=O)c1ccccc1)c1ccc2c(c1)nc(NC(=O)c1cocn1)n2CCC(N)=O"
parameter_measured = "pIC50"
value = 6.77


Shifting focus to the compound that follows.
*Q* Which measured pIC50 value corresponds to CN(C(=O)c1ccccc1)c1ccc2c(c1)nc(NC(=O)c1cscn1)n2CCC(N)=O ?
*A* 6.47

Cited source for all entries: ChEMBL document CHEMBL1143295
